Hey, just so you know, these numbers are from PubChem BioAssay AID588689.

Biological target: Genome polyprotein (Dengue virus type 2 (strain 16681-PDK53))
Assay: flavivirus cap methylation enzyme inhibition – biochemical, confirmation dose response, primary screen (AID 588689)
Conditions: Dengue-2 NS5 methyltransferase capping enzyme assay, measured here: pilot screen replicate inhibition, at 25 µM, stronger effect = higher value
About 1,000 (0.29%) of roughly 340,000 compounds were called active. The list is a sample of the results. Entries with a potency or affinity are not part of this list.
OBSERVABLE: inhibition

> print(dat)
                                    compound  observable   result
 1  CC(C)(C)OC(=O)C[C@@H]1C/C=C\C[C@@H](CC(=O)N(CCO)Cc2ccccc2)C(=O)N2CCC[C@H]2COC1=O  inhibition   -4.54%
 2   CCN(CC)c1ccc(C(=O)c2ccccc2C(=O)O)c(O)c1  inhibition    6.25%
 3    COc1ccc(C2(CNC(=O)CCC(=O)O)CCCC2)cc1OC  inhibition   -4.84%
 4  O=C(c1ccccc1)c1ccc(Oc2ccc(C(=O)O)c(C(=O)O)c2)cc1  inhibition    -1.5%
 5  CC(C)(C)C(=O)Nc1ccc(C(=O)Nc2cccc(Oc3ccc(C(=O)O)c(C(=O)O)c3)c2)cc1  inhibition   -1.52%
 6   COc1ccccc1N=Nc1c(C)[nH]n(-c2ccccc2)c1=O  inhibition   -4.55%
 7  COc1ccc(OC)c(N=c2oc3c(OC)cccc3cc2C(=O)NCc2ccco2)c1  inhibition   -5.77%
 8  CCOC(=O)C1=CN(Cc2ccco2)S(=O)(=O)N(C)C1c1ccc(C(F)(F)F)cc1 (stereo not given)  inhibition  -0.605%
 9  COc1ccccc1N=c1oc2c(OC)cccc2cc1C(=O)NCc1ccco1  inhibition    6.37%
10               O=S(=O)(Cc1ccccc1)Nc1ccccc1  inhibition   -2.12%
11  C=C1C(=O)O[C@H]2C[C@H]1[C@@H](OC(C)=O)C/C(C)=C/CC/C(C)=C\CC[C@]2(C)O  inhibition   -2.46%
12  C[C@@H]1CC=C[C@@H]2[C@H]1C(=O)N(Cc1ccccc1)[C@H]2c1cccc(C#Cc2ccccc2)c1  inhibition   -5.45%
13  C[C@H](CO)N1C[C@H](C)[C@@H](CN(C)Cc2ccc(C(=O)O)cc2)Oc2c(NS(=O)(=O)c3cccs3)cccc2C1=O  inhibition   -3.33%
14              Cc1cccc(C)c1OCCn1nnc2ccccc21  inhibition   -3.03%
15  CCCOC(=O)c1cc(-c2ccc(/C=C3/C(=O)N(C)C(=O)C(C#N)=C3C)o2)ccc1Cl  inhibition   -8.18%
16    O=C1C(=O)c2ccc(-c3ccccc3)cc2-c2ccccc21  inhibition    8.18%
17   CC1=NN(c2ccccc2)C(=O)/C1=C\N(O)c1ccccc1  inhibition   -1.18%
18  CCc1cc(C(=O)Cc2cnn(-c3ccccc3)c2)c(O)cc1O  inhibition   -6.54%
19  COC(=O)[C@]1(C)N[C@H](CN(C)S(=O)(=O)c2ccc(OC)cc2)[C@@H]2C(=O)N(C)C(=O)[C@@H]21  inhibition  -0.915%
20  O=C1NCCCC2c3c(cc(Br)c(O)c3Br)OC12N1CCOCC1 (stereo not given)  inhibition   -2.28%
21  N#CCC(=O)N/N=C/c1ccc(OS(=O)(=O)c2ccccc2)cc1  inhibition   -2.42%
22  Cc1ccc(-n2c(-c3ccc(Cl)cc3Cl)n[nH]c2=S)cc1  inhibition   -6.44%
23  CCC[C@@H](CN1CCC[C@H]1CN1C(N)=NC[C@H]1CC(C)C)N1C[C@@H](Cc2ccccc2)N(CCCC2CCCC2)C1=N  inhibition   -1.83%
24  O=C(Nc1ccccc1)c1ccccc1NC(=O)[C@H]1CCCC[C@H]1C(=O)O  inhibition   -1.53%
25  CCCCN1C(=O)N(CCc2ccc(F)cc2)S(=O)(=O)c2cc(C(F)(F)F)ccc21  inhibition    1.51%

---

// reported inhibition for each item listed
Molecular target: Genome polyprotein (Dengue virus type 2 (strain 16681-PDK53)) (UniProt P29991)
Experiment: flavivirus cap methylation enzyme inhibition – biochemical, confirmation dose response, primary screen (AID 588689)
Details: Dengue-2 NS5 methyltransferase capping enzyme assay, at 25 µM, stronger effect = higher value
Hit rate of the full screen: of about 340,000 compounds, about 1,000 (0.29%) were called active. A selection follows. Potency and affinity values are given separately.
OBSERVABLE: inhibition (%)

> print(dat)
                                    molecule  quantitative.readout
 1  O=C(CCN1CCCCC1=O)NC1CCCN(Cc2ccc(Cl)cc2)C1 (centres undefined)                  -5.2
 2  CCC(C)NC(=O)CCSCCC(=O)NC(C)CC (centres undefined)                 -4.42
 3  CCOC(=O)c1c(C)[nH]c(C(=O)OCC(=O)N(CC(C)C)C2CCS(=O)(=O)C2)c1C (centres undefined)                   4.1
 4  Cc1ccc(S(=O)(=O)Nc2ccccc2C(=O)Nc2nc(-c3ccc(F)cc3)cs2)cc1                  0.64
 5  COc1ccc(CN(C)C(=O)c2cccc(NS(=O)(=O)c3ccccc3)c2)c(OC)c1                  0.32
 6  CCC1(C)NC(=O)N(CC(=O)N2CCC(Cc3ccccc3)CC2)C1=O (centres undefined)                 -9.76
 7  COCCN(CC(=O)Nc1cccc(C)c1C)C(=O)C1(c2ccc(Cl)cc2)CCC1                 -0.37
 8  COc1ccc(OC)c(S(=O)(=O)ON2C(=O)c3ccccc3C2=O)c1                  12.6
 9  O=C(NCCN1CCOCC1)C1CC(=O)N(c2ccc(Cl)cc2)C1 (centres undefined)                 -16.7
10      O=C1CCC/C(=N\NC(=O)COc2ccc(Cl)cc2)C1                  3.18
11  NC(=O)C1CCN(C(=O)CN(C2CCCCC2)S(=O)(=O)c2ccc(F)cc2)CC1                 -9.49
12  C/C(CCc1ccccc1)=N/NC(=O)C(=O)NC(C)c1ccccc1 (centres undefined)                 -9.31
13  COc1cc(/C=C2/SC(N)=NC2=O)ccc1Oc1ccc([N+](=O)[O-])cc1[N+](=O)[O-]                  4.51
14  O=C(CCNC(=O)c1ccc([N+](=O)[O-])cc1)Oc1ccc(F)c(F)c1                 -4.42
15  C[C@@H]1CN([C@@H](C)CO)C(=O)Cc2cc(NC(=O)Nc3ccc(F)cc3)ccc2O[C@@H]1CN(C)Cc1ccc(Cl)c(Cl)c1                 -10.3
16  CCN(CC)S(=O)(=O)c1ccc(OC)c(NS(=O)(=O)Cc2ccccc2)c1                 -2.33
17  Cc1ccc(S(=O)(=O)ON2C(=O)c3cccc4cccc(c34)C2=O)cc1                  14.2
18  O=C(CCc1nc(-c2ccc(Cl)cc2)no1)NCc1ccccc1CN1CCOCC1                  1.12
19  COc1cccc(N2CCN(C(=O)CNC(=O)c3sc4ccccc4c3Cl)CC2)c1                 -1.29

---

Target: Genome polyprotein (Dengue virus type 2 (strain 16681-PDK53)) (UniProt P29991)
Experiment: flavivirus cap methylation enzyme inhibition – biochemical, confirmation dose response, primary screen (AID 588689)
Details: Dengue-2 NS5 methyltransferase capping enzyme assay, at 25 µM, stronger effect = higher value
Screen size: about 340,000 compounds; about 1,000 (0.29%) were called active. Not all results are given here. Potency and affinity values are given separately.
# inhibition listing for each entry below
OBSERVABLE: inhibition

> print(dat)
                      smiles.representation  observable             result
1                COC1=CC(=O)C(OC)=C(OC)C1=O  inhibition   6.99% (inactive)
2  CC(=O)NNC(=O)CN1C(=O)/C(=C/c2ccccc2)SC1=S  inhibition  -2.32% (inactive)
3  O=C(O)CN1C(=O)/C(=C\c2cccc(OC(=O)c3ccco3)c2)SC1=S  inhibition   2.44% (inactive)
4  O=C(O)CCn1cc(/C=C/C(=O)c2ccc(Cl)cc2)c(-c2ccc(Br)cc2)n1  inhibition   12.8% (inactive)

---

Target: Genome polyprotein (Dengue virus type 2 (strain 16681-PDK53)) (UniProt P29991)
Assay: flavivirus cap methylation enzyme inhibition – biochemical, confirmation dose response, primary screen (AID 588689)
Conditions: Dengue-2 NS5 methyltransferase capping enzyme assay, at 25 µM, stronger effect = higher value
The whole screen tested about 340,000 compounds, of which about 1,000 (0.29%) were called active. Not all results are given here. Potency and affinity values are given separately.
OBSERVABLE: inhibition (%)

> print(dat)
                                    compound                               target.desc  quantitative.readout
 1  CCNc1nc(NCC)n2c(SCC(=O)NC34CC5CC(CC(C5)C3)C4)nnc2n1  Genome polyprotein (Dengue virus type 2 (strain 16681-PDK53)) (UniProt P29991)                 -8.01
 2   CCNCc1cc(OCC)c(OCC(=O)NCCc2ccccc2)cc1Cl  Genome polyprotein (Dengue virus type 2 (strain 16681-PDK53)) (UniProt P29991)                 -2.77
 3  CCCCNC(=O)c1sc(=S)n2c1[nH]c(=O)c1ccccc12  Genome polyprotein (Dengue virus type 2 (strain 16681-PDK53)) (UniProt P29991)                  10.2
 4  Cc1ccc(S(=O)(=O)N2[C@@H](c3ccc(Cl)cc3)C(C(=O)O)=CC[C@H]2c2cccc(Cl)c2)cc1  Genome polyprotein (Dengue virus type 2 (strain 16681-PDK53)) (UniProt P29991)                  22.7
 5  COc1cc(NC(=O)CN2CC(c3ccccc3)CC2=O)cc(OC)c1 (centres undefined)  Genome polyprotein (Dengue virus type 2 (strain 16681-PDK53)) (UniProt P29991)                  0.73
 6  CC(C)N(CC#CCC(O)(c1ccccc1)c1ccccc1)C(C)C  Genome polyprotein (Dengue virus type 2 (strain 16681-PDK53)) (UniProt P29991)                 -5.16
 7  COc1ccc(-c2csc(NC(=O)c3ccccc3F)c2C(=O)O)cc1  Genome polyprotein (Dengue virus type 2 (strain 16681-PDK53)) (UniProt P29991)                  11.1
 8           O=C(O)c1[nH]c2ccccc2c1-c1ccccc1  Genome polyprotein (Dengue virus type 2 (strain 16681-PDK53)) (UniProt P29991)                 -4.76
 9  Cc1ccc(S(=O)(=O)N2[C@@H](c3cccc(Cl)c3)C(C(=O)O)=CC[C@H]2c2cccc(C)c2)cc1  Genome polyprotein (Dengue virus type 2 (strain 16681-PDK53)) (UniProt P29991)                  20.8
10           CC(=O)c1c(C)oc2c1cc(O)c1ccccc12  Genome polyprotein (Dengue virus type 2 (strain 16681-PDK53)) (UniProt P29991)                 -5.41
11  Cc1cc(-c2ccccc2)nc2[nH]n(-c3ccccc3)c(=O)c12  Genome polyprotein (Dengue virus type 2 (strain 16681-PDK53)) (UniProt P29991)                  14.4
12           CC(=O)Nc1c(C(=O)O)[nH]c2ccccc12  Genome polyprotein (Dengue virus type 2 (strain 16681-PDK53)) (UniProt P29991)                  -4.8
13  COc1ccc(CN2C(=O)C(C)Nc3ncnc(N4CCOCC4)c32)cc1 (centres undefined)  Genome polyprotein (Dengue virus type 2 (strain 16681-PDK53)) (UniProt P29991)                 -5.79
14           O=c1cc(CCc2ccccc2)oc2cccc(O)c12  Genome polyprotein (Dengue virus type 2 (strain 16681-PDK53)) (UniProt P29991)                 -3.62
